- Study system: TCR Vβ17 on T cells of PBMCs
- Sequence (A0A075B6N1 22-114): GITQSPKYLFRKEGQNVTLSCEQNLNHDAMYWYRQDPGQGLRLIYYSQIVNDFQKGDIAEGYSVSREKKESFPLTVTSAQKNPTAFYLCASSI
- Test method notes: cell-based or functional assay
Quantity name: Proliferation (EC50, ug/ml)
A complete answer gives the number and then names the unit.

Report Proliferation (EC50, ug/ml) for 28D2E6 (antibody, IgG1, V domains shown) VH: EVQLQESGPGLVKPSQSLSLTCSVTGYFISSGYYWKWIRQFPGNKLEWMGYISYDGSNNYNPSLKNRISITRDTSKNQFFLKLNSVTAEDTATYYCARGGGYVPVWGTGTTVTVSS VL: DIQMTQSPLSLPVSLGDQASISCRSSQSIVRSNGNTYLEWYLQKPGQSPKLLIYKVSNRFSGVPDRFSGSGSGTDFTLKISRVEAEDLGVYYCFQSSHVPRTFGGGTKLEIK please.
0.3 µg/mL

# iterate: 28B2F5 (antibody, IgG2a, V domains shown) VH: EVQLQESGPELVKPGASVKMSCKASGYTFTDDNMHWVKQSHGKSLEWIGYINPNNNHTNYNQKFKGKATLTVNKSSSTAYMELRSLTSEDSAVYFCARSTVVPFYAMDYWGQGTSVTVSS VL: DIKMTQSPASLSMAIGEKVTIRCITITDIDDDMNWYQQKPGEPPKLLFSEGNTLRPGVPSRFSSSGYGSDFAFTIENMLSEDVADYYCLQSDNLPLTFGAGTKLELK
0.7 µg/mL
